- Assay Notes: Hygroscopicity of screened salts (Table 2)
- Type: physicochemical
Readout Type: Hygroscopicity (%)
Answers are plain numbers, in %.

COC(=O)CC[C@@H]1N=C(c2ccccn2)c2cc(Br)ccc2-n2c(C)cnc21.O=S(=O)(O)O [(bi)sulfate form 2]	24.9
COC(=O)CC[C@@H]1N=C(c2ccccn2)c2cc(Br)ccc2-n2c(C)cnc21.O=S(=O)(O)O [(bi)sulfate form 1]	0.1

Please give Hygroscopicity (%) for each item listed below.
1. O=S(=O)(O)c1cccc2c(S(=O)(=O)O)cccc12 [1,5-naphthalene disulfonate]
2. COC(=O)CC[C@@H]1N=C(c2ccccn2)c2cc(Br)ccc2-n2c(C)cnc21.Cl [Hydrochloride]

**Result**
[15.9, 2.8]

This collection of values is drawn from patent US10618904B2.
